melting point overview

# count of solved cases: 5
Compound	Value
CCOC(=O)N1CC[C@@H]2[C@H]1CCC[C@@]2(O)C#Cc1ccc(F)cc1 (racemic) [Example 1i]	115 to 116 °C
CC(=O)N[C@@H]1CCC[C@@](O)(C#Cc2cccc(C)c2)C1 (racemic) [Example 6m]	152 to 155 °C
Cc1cccc(C#C[C@]2(O)CCC[C@@H]3[C@H]2CCN3C(=O)c2ccco2)c1 [Example 1b]	195.5 to 196.5 °C
CCOC(=O)N[C@@H]1CCC[C@@](O)(C#Cc2cccc(C)c2)C1 (racemic) [Example 6o]	106 to 107 °C
CCOC(=O)N1CC[C@@H]2[C@H]1CCC[C@@]2(O)C#Cc1cccc(C)c1 [Example 1a]	118 to 121 °C

Then this compound:
What measured melting point goes with CCOC(=O)N[C@@H]1CCC[C@@](O)(C#Cc2cccc(F)c2)C1 (racemic) [Example 6u] ? 121 to 123 °C
